Tested on: P. aeruginosa ATCC 27853
assay-procedure: Neutropenic mouse bloodstream infection model
Type: in vivo
condition-details: single IV dose 4 mg/kg, 4 h
Residues, ends and D or L forms follow the SMILES beside them.
Each record here notes measured Log10 CFU/mL blood at 4 h, Mean.
Hi! Could you send only the number? It should be in Log10 CFU/mL blood, unit omitted.

compound: CCCCCCCC(=O)N[C@@H](CCN)C(=O)N[C@H](C(=O)N[C@@H](CN)C(=O)N[C@H]1CCNC(=O)[C@H]([C@@H](C)O)NC(=O)[C@H](CCN)NC(=O)[C@H](CCN)NC(=O)[C@H]([C@@H](C)O)NC(=O)[C@@H](CC(C)C)NC(=O)[C@H](CCN)NC1=O)[C@@H](C)O [Lipopeptide F251] (HELM PEPTIDE1{[CCCCCCCC(=O)[*:2]].[Dab].T.[NC[C@H](N[*:1])C(=O)[*:2]].[Dab].[Dab].[dL].T.[Dab].[Dab].T}$PEPTIDE1,PEPTIDE1,5:R3-11:R2$$$V2.0)
Log10 CFU/mL blood at 4 h, Mean, Log10 CFU/mL blood: 5.87

Input: Quickly give me recorded Log10 CFU/mL blood at 4 h, Mean for CCCCCCCC(=O)N[C@@H](CCN)C(=O)N[C@H](C(=O)N[C@@H](CCN)C(=O)N[C@H]1CCNC(=O)[C@H]([C@@H](C)O)NC(=O)[C@H](CCN)NC(=O)[C@H](CCN)NC(=O)[C@H](CC(C)C)NC(=O)[C@@H]([C@H](C)O)NC(=O)[C@H](CCN)NC1=O)[C@@H](C)O [Lipopeptide F228] (HELM PEPTIDE1{[CCCCCCCC(=O)[*:2]].[Dab].T.[Dab].[Dab].[Dab].[dT].L.[Dab].[Dab].T}$PEPTIDE1,PEPTIDE1,5:R3-11:R2$$$V2.0)
Output: 4.13

###

assay-procedure: in vitro
Type: cell-based, human
condition-details: human, wild-type HK-2 cells (kidney proximal tubular), Cell viability, WT, Rep1
Residues, ends and D or L forms follow the SMILES beside them.
value-type: viability at 24 h (%)
Hi! Could you send only the number? It should be in %, unit omitted.

Input: Quickly give me recorded viability at 24 h for CCCCCCCC(=O)N[C@@H](CCN)C(=O)N[C@H](C(=O)N[C@@H](CN)C(=O)N[C@H]1CCNC(=O)[C@H]([C@@H](C)O)NC(=O)[C@H](CCN)NC(=O)[C@H](CCN)NC(=O)[C@H](CC)NC(=O)[C@@H](CC(C)C)NC(=O)[C@H](CCN)NC1=O)[C@@H](C)O [Lipopeptide F287] (HELM PEPTIDE1{[CCCCCCCC(=O)[*:2]].[Dab].T.[NC[C@H](N[*:1])C(=O)[*:2]].[Dab].[Dab].[dL].[Abu].[Dab].[Dab].T}$PEPTIDE1,PEPTIDE1,5:R3-11:R2$$$V2.0)
Output: 52

###

assay-procedure: Cell viability after 24 h treatment
Assay type: cell-based, human
condition-details: human, KCNJ16 knockout HK-2 cells (kidney proximal tubular), Cell viability, KCNJ16 KO, Rep2; KCNJ16 knockout HK-2 cells, 24 h; replicate 2; Fig. 6b; read-out: Cell viability, KCNJ16 KO, Rep2
Residues, ends and D or L forms follow the SMILES beside them.
Each record here notes measured viability at 24 h.
Write the figure, then the unit, nothing else.

compound: CCCCCCCC(=O)N[C@@H](CCN)C(=O)N[C@H](C(=O)N[C@@H](CN)C(=O)N[C@H]1CCNC(=O)[C@H]([C@@H](C)O)NC(=O)[C@H](CCN)NC(=O)[C@H](CCN)NC(=O)[C@H](CC)NC(=O)[C@@H](CC(C)C)NC(=O)[C@H](CCN)NC1=O)[C@@H](C)O [Lipopeptide F287] (HELM PEPTIDE1{[CCCCCCCC(=O)[*:2]].[Dab].T.[NC[C@H](N[*:1])C(=O)[*:2]].[Dab].[Dab].[dL].[Abu].[Dab].[Dab].T}$PEPTIDE1,PEPTIDE1,5:R3-11:R2$$$V2.0)
viability at 24 h: 77.1%
//
compound: CC[C@@H]1NC(=O)[C@@H](CC(C)C)NC(=O)[C@H](CCN)NC(=O)[C@@H](NC(=O)[C@H](CN)NC(=O)[C@@H](NC(=O)[C@H](CCN)NC(=O)c2ccc(Cl)cc2Cl)[C@@H](C)O)CCNC(=O)[C@H]([C@@H](C)O)NC(=O)[C@H](CCN)NC(=O)[C@H](CCN)NC1=O [Lipopeptide F365] (HELM PEPTIDE1{[O=C(c1ccc(Cl)cc1Cl)[*:2]].[Dab].T.[NC[C@H](N[*:1])C(=O)[*:2]].[Dab].[Dab].[dL].[Abu].[Dab].[Dab].T}$PEPTIDE1,PEPTIDE1,5:R3-11:R2$$$V2.0)
viability at 24 h: 94.1%

Input: Quickly give me recorded viability at 24 h for CCCCCCCC(=O)N[C@@H](CCN)C(=O)N[C@H](C(=O)N[C@@H](CCN)C(=O)N[C@H]1CCNC(=O)[C@H]([C@@H](C)O)NC(=O)[C@H](CCN)NC(=O)[C@H](CCN)NC(=O)[C@H](CC)NC(=O)[C@@H](CC(C)C)NC(=O)[C@H](CCN)NC1=O)[C@@H](C)O [Lipopeptide F319] (HELM PEPTIDE1{[CCCCCCCC(=O)[*:2]].[Dab].T.[Dab].[Dab].[Dab].[dL].[Abu].[Dab].[Dab].T}$PEPTIDE1,PEPTIDE1,5:R3-11:R2$$$V2.0)
Output: 95.5%

###

Each record here notes measured viability at 24 h.
assay-procedure: in vitro
Type: cell-based, human
condition-details: human, wild-type HK-2 cells (kidney proximal tubular), Cell viability, WT, Rep1
Residues, ends and D or L forms follow the SMILES beside them.
Hi! Could you send only the number? It should be in %, unit omitted.

compound: CCCCCCCC(=O)N[C@@H](CCN)C(=O)N[C@H](C(=O)N[C@@H](CCN)C(=O)N[C@H]1CCNC(=O)[C@H]([C@@H](C)O)NC(=O)[C@H](CCN)NC(=O)[C@H](CCN)NC(=O)[C@H](CC)NC(=O)[C@@H](CC(C)C)NC(=O)[C@H](CCN)NC1=O)[C@@H](C)O [Lipopeptide F319] (HELM PEPTIDE1{[CCCCCCCC(=O)[*:2]].[Dab].T.[Dab].[Dab].[Dab].[dL].[Abu].[Dab].[Dab].T}$PEPTIDE1,PEPTIDE1,5:R3-11:R2$$$V2.0)
viability at 24 h (%): 79

Let's switch to this compound now.
Input: Quickly give me recorded viability at 24 h for CC[C@@H]1NC(=O)[C@@H](CC(C)C)NC(=O)[C@H](CCN)NC(=O)[C@@H](NC(=O)[C@H](CN)NC(=O)[C@@H](NC(=O)[C@H](CCN)NC(=O)c2ccc(Cl)cc2Cl)[C@@H](C)O)CCNC(=O)[C@H]([C@@H](C)O)NC(=O)[C@H](CCN)NC(=O)[C@H](CCN)NC1=O [Lipopeptide F365] (HELM PEPTIDE1{[O=C(c1ccc(Cl)cc1Cl)[*:2]].[Dab].T.[NC[C@H](N[*:1])C(=O)[*:2]].[Dab].[Dab].[dL].[Abu].[Dab].[Dab].T}$PEPTIDE1,PEPTIDE1,5:R3-11:R2$$$V2.0)
Output: 96.4

###

Test system: P. aeruginosa ATCC 27853
assay-procedure: Neutropenic mouse bloodstream infection model
Assay type: in vivo
condition-details: single IV dose 4 mg/kg, 4 h, treated minus control, mean of replicates; 4 mg/kg
Residues, ends and D or L forms follow the SMILES beside them.
value-type: Δlog10 CFU/mL blood (mean)
Write the figure, then the unit, nothing else.

Solved entries (count: 2):
compound: CCCCCCCC(=O)N[C@@H](CCN)C(=O)N[C@H](C(=O)N[C@@H](CCN)C(=O)N[C@H]1CCNC(=O)[C@H]([C@@H](C)O)NC(=O)[C@H](CCN)NC(=O)[C@H](CCN)NC(=O)[C@H](C)NC(=O)[C@@H](CC(C)C)NC(=O)[C@H](CCN)NC1=O)[C@@H](C)O [Lipopeptide F124] (HELM PEPTIDE1{[CCCCCCCC(=O)[*:2]].[Dab].T.[Dab].[Dab].[Dab].[dL].A.[Dab].[Dab].T}$PEPTIDE1,PEPTIDE1,5:R3-11:R2$$$V2.0)
test-target: P. aeruginosa ATCC 27853
Δlog10 CFU/mL blood (mean): −2.92 log10 CFU/mL blood
--
compound: CCCCCCCC(=O)N[C@@H](CCN)C(=O)N[C@H](C(=O)N[C@@H](CCN)C(=O)N[C@H]1CCNC(=O)[C@H]([C@@H](C)O)NC(=O)[C@H](CCN)NC(=O)[C@H](CCN)NC(=O)[C@H](CC(C)C)NC(=O)[C@@H]([C@H](C)O)NC(=O)[C@H](CCN)NC1=O)[C@@H](C)O [Lipopeptide F228] (HELM PEPTIDE1{[CCCCCCCC(=O)[*:2]].[Dab].T.[Dab].[Dab].[Dab].[dT].L.[Dab].[Dab].T}$PEPTIDE1,PEPTIDE1,5:R3-11:R2$$$V2.0)
test-target: P. aeruginosa ATCC 27853
Δlog10 CFU/mL blood (mean): −3.39 log10 CFU/mL blood

Let's switch to this compound now.
Input: Quickly give me recorded Δlog10 CFU/mL blood (mean) for CC[C@@H]1NC(=O)[C@@H](CC(C)C)NC(=O)[C@H](CCN)NC(=O)[C@@H](NC(=O)[C@H](CN)NC(=O)[C@@H](NC(=O)[C@H](CCN)NC(=O)c2ccc(F)cc2Cl)[C@@H](C)O)CCNC(=O)[C@H]([C@@H](C)O)NC(=O)[C@H](CCN)NC(=O)[C@H](CCN)NC1=O [Lipopeptide F449] (HELM PEPTIDE1{[O=C(c1ccc(F)cc1Cl)[*:2]].[Dab].T.[NC[C@H](N[*:1])C(=O)[*:2]].[Dab].[Dab].[dL].[Abu].[Dab].[Dab].T}$PEPTIDE1,PEPTIDE1,5:R3-11:R2$$$V2.0)
Output: −2.32 log10 CFU/mL blood
